Assayed System: UniProt:P08908
Sequence (P08908 1-422): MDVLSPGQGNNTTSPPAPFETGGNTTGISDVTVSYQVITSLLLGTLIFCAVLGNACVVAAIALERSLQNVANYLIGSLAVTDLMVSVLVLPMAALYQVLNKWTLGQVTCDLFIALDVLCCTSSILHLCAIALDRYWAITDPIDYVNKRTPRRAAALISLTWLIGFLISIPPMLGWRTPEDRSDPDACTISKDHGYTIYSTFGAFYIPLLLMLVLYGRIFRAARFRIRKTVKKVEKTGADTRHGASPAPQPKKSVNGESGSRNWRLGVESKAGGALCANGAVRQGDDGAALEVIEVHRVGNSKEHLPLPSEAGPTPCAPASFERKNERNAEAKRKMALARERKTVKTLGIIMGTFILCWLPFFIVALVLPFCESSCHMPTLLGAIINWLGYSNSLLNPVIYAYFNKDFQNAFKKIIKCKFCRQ
Experiment Summary: Agonist/antagonist assay, [35S]GTPgammaS binding, human serotonin 1A receptors
Protocol Conditions: Serotonin 1A
Assign EC50 to each entry below.
Answers are plain numbers, in nM.

Here's what some known entries look like.
>  <Compound>
Cl.Cl.O=c1[nH]c2cccc(C3CCCN(Cc4cncc(-c5ccc(F)cc5)c4)C3)c2o1 (stereo not drawn) [dihydrochloride]

>  <Assayed System>
UniProt:P08908

>  <EC50 / nM>
108

$$$$
>  <Compound>
O=C1c2ccccc2OC=C(Cl)N1CCCCN1CC=C(c2ccccn2)CC1

>  <Assayed System>
UniProt:P08908

>  <EC50 / nM>
2.41

$$$$

Give a short answer stating reported EC50 for Cl.Cl.Fc1ccc(-c2cncc(CNC[C@H]3CCc4ccccc4O3)c2)cc1 [Sarizotan, dihydrochloride] .
2.4
